- Test system: P388 leukemia ip, CD2F1 mice, survival T/C
- assayProtocol: NCI In Vivo Anticancer Drug Screen. Data for tumor model P388 Leukemia (intraperitoneal) in CD2F1 (CDF1) mice
- conditionContext: endpoint: median survival time; dose: 100.0 mg/kg/injection; schedule: Q01DX009 (ip); vehicle: saline; higher = longer survival
Toxic doses and inconclusive results are not listed.
measurementName: T/C

- O=C(O)[C@@H]1C[C@@H](O)CN1: 96 % of control
- CN1CCN(CCSSCCN2CCN(C)CC2)CC1: 104 % of control
- O=C(CNC(=O)c1ccccc1)Nc1ccccc1: 94 % of control
- ClC1=CCCCC1: 110 % of control
- CC1CC(N)=NC1C(=O)NCCC#N (stereo unspecified): 90 % of control
- N#CC1=C(C#N)CC(c2ccccc2)CC1 (stereo unspecified): 100 % of control
- COCCOC: 98 % of control
- O=C(Oc1ccc[nH]c1=O)C12CC3CC(CC(C3)C1)C2: 100 % of control
- CC(=O)Nc1nc(C)c(S(=O)(=O)Cl)s1: 98 % of control
- O=C(O)c1ccc(Cc2ccc(C(=O)O)cc2)cc1 (tested in a mixture with another compound): 99 % of control
- O=C(CCl)NC(Cc1ccsc1)C(=O)O (stereo unspecified): 102 % of control

----------
- System: P388 leukemia ip, CD2F1 mice, survival T/C
- assayProtocol: NCI In Vivo Anticancer Drug Screen. Data for tumor model P388 Leukemia (intraperitoneal) in CD2F1 (CDF1) mice
- conditionContext: endpoint: median survival time; dose: 100.0 mg/kg/injection; schedule: Q04DX003 (ip); vehicle: saline; higher = longer survival
Toxic doses and inconclusive results are not listed.
measurementName: T/C

- Cc1cc(N=Cc2cccs2)cc(Cl)c1O: 101 % of control
- COc1cc(Br)cc(/C=C(\C)[N+](=O)[O-])c1O: 104 % of control
- CSC(=S)c1ccc(NSc2ccccc2[N+](=O)[O-])cc1: 113 % of control
- CSC(=S)c1ccc(NS(=O)(=O)c2ccccc2)cc1: 100 % of control
- [Mn+2].[NH-]CC(=O)NC(Cc1ccccc1)C(=O)O.[NH-]CC(=O)NC(Cc1ccccc1)C(=O)O (stereo not given): 113 % of control

----------
- Tested on: P388 leukemia ip, CD2F1 mice, survival T/C
- assayProtocol: NCI In Vivo Anticancer Drug Screen. Data for tumor model P388 Leukemia (intraperitoneal) in CD2F1 (CDF1) mice
- conditionContext: endpoint: median survival time; dose: 12.5 mg/kg/injection; schedule: Q01DX009 (ip); vehicle: saline with Tween-80
Toxic doses and inconclusive results are not listed. How the source made its calls: active means survival T/C of 150% or more; inactive means T/C below 125% in these data.
Outcome codes: active, inactive

• COC(=O)CCC1=CC(=O)C(OC)=CC1=O = inactive
• CCOC(=O)C(Cc1ccc(N(CCCl)CCCl)cc1)NC(=O)CNC(C)=O (centres undefined) = active
• CCn1c2ccccc2c2cc(NC(=O)N(CCCl)N=O)ccc21 = inactive
• NNc1n[nH]c(=S)n1N = inactive
• CC[C@H]1CN2CCc3cc(OC)c(OC)cc3[C@@H]2C[C@@H]1C[C@@H]1c2cc(OC)c(OC)cc2CCN1N=O = inactive
• CC(C)(C)C1=CC2(C(C)(C)C)OC2C(=O)C1=O (centres undefined) = inactive
• CC1=NCC(C)c2ccccc21 (centres undefined) = inactive
• COc1cc(CC(C)N)ccc1O (centres undefined) = inactive
• O=C1c2ccccc2C(=O)N1S(=O)(=O)C/C=C/CCl = inactive
• CCN(CC)C(=O)C1CCCCN1Cc1c[nH]c2ccccc12 (centres undefined) = inactive
• CC1=C(Br)C(c2ccccc2)=Nc2ccccc2N1 = inactive
• CCCCCCCCCCCCCCCCNCC(O)CN (centres undefined) = inactive
• C/C=C1/C[N+]2(C)CCc3c([nH]c4ccccc34)C2CC1C(CO)C(=O)OC (centres undefined) = inactive
• CN(C)CCO[Si](C)(c1ccccc1)c1ccc(F)cc1 (centres undefined) = inactive
• CSc1nc(C)c(Br)c(Sc2nc(N)nc3nc[nH]c23)n1 = inactive
• CCCCCCCCC1OC1CCCCCCCC(=O)O (centres undefined) = inactive
• N=c1c(C(N)=O)nc(/C=C/c2ccccc2)cn1O = inactive
• O=C([Se][Se]C(=O)c1ccccc1)c1ccccc1 = inactive
• NC(CCC(=O)O)C(=O)Nc1ccc(N(CCCl)CCCl)cc1 (centres undefined) = inactive
